Test system: IL-22 mRNA in EL4 T-cells over expressing human RORγt
Test: IL-22 mRNA expression (qRT-PCR) in EL4 cells overexpressing human RORγt
Assay type: cell-based, murine
Conditions: 10 μM, 5 h, PMA/ionomycin-stimulated, vs vehicle control
Parameter Measured: IL-22 transcription

INSERT INTO results (compound, result) VALUES
  ('COc1ccc(C(=O)c2ccc(C)cc2)c(O)c1 [Benzophenone-10, benzophenone-10]', 'tended to increase'),
  ('O=C(OCc1ccccc1)c1ccc(O)cc1 [Benzylparaben, benzylparaben]', 'tended to increase');
